The values you see were collected from the supplement of paper PMC4858399.

# Test system: Caenorhabditis elegans N2
# testDescription: mean nematode size ln(EXT) after 48 h, plate-adjusted (DMSO control set to 6) (ln(EXT), control-adjusted); higher = larger nematodes / less growth inhibition
# particulars: 100 µM; exposure time 48 h
Counter-ions that a name gives are not always drawn.
Answer each item with its documented mean nematode size ln(EXT) (ln).
Answer with a bare number; do not write a unit.

Task: # get_value(readout= mean nematode size ln(EXT) (ln), system= Caenorhabditis elegans N2) for O=S(=O)(O)C(F)(F)C(F)(F)C(F)(F)C(F)(F)C(F)(F)C(F)(F)F [Potassium perfluorohexanesulfonate]
Result: 5.55

Task: # get_value(readout= mean nematode size ln(EXT) (ln), system= Caenorhabditis elegans N2) for NC(=O)Cn1c(=O)cc(CCN2CCN(c3nccc4sccc34)CC2)c2ccc(F)cc21 [Trelanserin]
Result: 5.7

Task: # get_value(readout= mean nematode size ln(EXT) (ln), system= Caenorhabditis elegans N2) for O=S(=O)(O)C(F)(F)C(F)(F)C(F)(F)C(F)(F)C(F)(F)C(F)(F)C(F)(F)C(F)(F)F [Heptadecafluorooctanesulfonic acid potassium salt]
Result: 3.62

Task: # get_value(readout= mean nematode size ln(EXT) (ln), system= Caenorhabditis elegans N2) for CCC(C)(C)c1ccc(O)cc1 [4-(2-methylbutan-2-yl)phenol]
Result: 5.92

Task: # get_value(readout= mean nematode size ln(EXT) (ln), system= Caenorhabditis elegans N2) for CNC(=O)Oc1cccc2c1OC(C)(C)O2 [Bendiocarb]
Result: 5.76

Task: # get_value(readout= mean nematode size ln(EXT) (ln), system= Caenorhabditis elegans N2) for Cc1nn(C)c(Oc2ccccc2)c1C=NOCc1ccc(C(=O)OC(C)(C)C)cc1 [(Z,E)-Fenpyroximate]
Result: 4.05

Task: # get_value(readout= mean nematode size ln(EXT) (ln), system= Caenorhabditis elegans N2) for CC1(C)C(=O)NC(=O)N1CO [1-(Hydroxymethyl)-5,5-dimethylhydantoin]
Result: 5.85

Task: # get_value(readout= mean nematode size ln(EXT) (ln), system= Caenorhabditis elegans N2) for CC(C)(c1cc(Br)c(O)c(Br)c1)c1cc(Br)c(O)c(Br)c1 [3,3',5,5'-Tetrabromobisphenol A]
Result: 4.36

Task: # get_value(readout= mean nematode size ln(EXT) (ln), system= Caenorhabditis elegans N2) for CCN(CC)N=O [N-Nitrosodiethylamine]
Result: 5.75

Task: # get_value(readout= mean nematode size ln(EXT) (ln), system= Caenorhabditis elegans N2) for "NC(=O)N(O)[C@@H]1COc2cc(OCc3ccccc3)ccc21"
Result: 5.81

Task: # get_value(readout= mean nematode size ln(EXT) (ln), system= Caenorhabditis elegans N2) for CCCCCCCCC(=O)O [Nonanoic acid]
Result: 5.93

Task: # get_value(readout= mean nematode size ln(EXT) (ln), system= Caenorhabditis elegans N2) for O=C(O)CC(O)(CC(=O)O)C(=O)O [Citric acid]
Result: 5.63

Task: # get_value(readout= mean nematode size ln(EXT) (ln), system= Caenorhabditis elegans N2) for COC(=O)[C@H]1[C@H]2C[C@@H]3c4[nH]c5cc(OC)ccc5c4CCN3C[C@H]2C[C@@H](OC(=O)c2cc(OC)c(OC)c(OC)c2)[C@@H]1OC [Reserpine]
Result: 4.95

Task: # get_value(readout= mean nematode size ln(EXT) (ln), system= Caenorhabditis elegans N2) for CCC(C)c1ccccc1O (stereo not drawn) [2-(Butan-2-yl)phenol]
Result: 5.82

Task: # get_value(readout= mean nematode size ln(EXT) (ln), system= Caenorhabditis elegans N2) for CCCC(=O)O [Butanoic acid]
Result: 6

Task: # get_value(readout= mean nematode size ln(EXT) (ln), system= Caenorhabditis elegans N2) for Nc1nc(N)nc(NC2CC2)n1 [Cyromazine]
Result: 6.14

Task: # get_value(readout= mean nematode size ln(EXT) (ln), system= Caenorhabditis elegans N2) for O=C(N[C@@H](Cc1ccccc1)[C@@H](O)C(=O)N1C[C@@H](O)[C@@H](O)C1)c1cc2cc(Cl)ccc2[nH]1 [Ingliforib]
Result: 5.46

Task: # get_value(readout= mean nematode size ln(EXT) (ln), system= Caenorhabditis elegans N2) for CSC1=N[C@@](C)(c2ccccc2)C(=O)N1Nc1ccccc1 [Fenamidone]
Result: 5.83
